Reference for the values: ChEMBL document CHEMBL4002575

Entries and their measured half-life at 2 µM follow.
- protocol: Half life in mouse plasma at 2 uM after 2 hrs by LC/MS-MS method
- Assay type: ADME, cell-free
readoutLabel: half-life at 2 µM

[[record]]
structuresmiles = "C[C@H]1[C@H](NC(=O)OCCCCC2CCCCC2)C(=O)N1Oc1ccccc1"
endpointresult = "< 5 min"

[[record]]
structuresmiles = "C[C@H]1[C@H](NC(=O)OCCCCC2CCCCC2)C(=O)N1OCCCS(C)(=O)=O"
endpointresult = "< 5 min"

[[record]]
structuresmiles = "CON1C(=O)[C@@H](NC(=O)OCCCCC2CCCCC2)[C@@H]1C"
endpointresult = "< 5 min"

[[record]]
structuresmiles = "CCCCCCCCC(=O)N[C@H]1CNC1=O"
endpointresult = "130 min"

[[record]]
structuresmiles = "C[C@H]1[C@H](NC(=O)OCCCCC2CCCCC2)C(=O)N1Oc1ccc(S(C)(=O)=O)cc1"
endpointresult = "< 5 min"


###

Entries and their measured pIC50 follow.
- testTarget: N-acylethanolamine-hydrolyzing acid amidase (Homo sapiens)
- Sequence (Q02083 29-125 limits assumed): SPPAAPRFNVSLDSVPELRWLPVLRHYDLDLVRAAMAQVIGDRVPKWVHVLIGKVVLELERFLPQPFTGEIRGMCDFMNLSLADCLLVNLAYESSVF
- Sequence (Q02083 126-359 limits assumed): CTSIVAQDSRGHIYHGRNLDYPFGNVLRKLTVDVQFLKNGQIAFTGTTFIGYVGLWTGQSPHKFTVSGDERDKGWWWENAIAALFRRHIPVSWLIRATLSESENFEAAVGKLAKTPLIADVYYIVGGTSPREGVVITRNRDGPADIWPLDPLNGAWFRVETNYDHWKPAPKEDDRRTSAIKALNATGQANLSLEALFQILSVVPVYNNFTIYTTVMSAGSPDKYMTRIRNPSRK
- protocol: Inhibition of recombinant human spleen NAAA expressed in HEK293 cells using PAMCA as substrate preincubated for 10 mins followed by substrate addition measured after 50 mins by fluorescence assay
pIC50: −log10 of the molar value.
readoutLabel: pIC50

[[record]]
structuresmiles = "C[C@H]1[C@H](NC(=O)OCCCCC2CCCCC2)C(=O)N1OC(C)(C)C"
testtarget = "N-acylethanolamine-hydrolyzing acid amidase (Homo sapiens)"
limitqualifier = "<"
endpointresult = 4.30

[[record]]
structuresmiles = "CON1C[C@H](NC(=O)OCCCCC2CCCCC2)C1=O"
testtarget = "N-acylethanolamine-hydrolyzing acid amidase (Homo sapiens)"
limitqualifier = "="
endpointresult = 7.80

[[record]]
structuresmiles = "COC(=O)N1C[C@H](NC(=O)OCCCCC2CCCCC2)C1=O"
testtarget = "N-acylethanolamine-hydrolyzing acid amidase (Homo sapiens)"
limitqualifier = "="
endpointresult = 5.14

[[record]]
structuresmiles = "CN1C[C@H](NC(=O)OCCCCC2CCCCC2)C1=O"
testtarget = "N-acylethanolamine-hydrolyzing acid amidase (Homo sapiens)"
limitqualifier = "="
endpointresult = 5.70

[[record]]
structuresmiles = "CC(=O)N1C[C@H](NC(=O)OCCCCC2CCCCC2)C1=O"
testtarget = "N-acylethanolamine-hydrolyzing acid amidase (Homo sapiens)"
limitqualifier = "<"
endpointresult = 4.30

[[record]]
structuresmiles = "CON1C[C@@H](NC(=O)OCCCCC2CCCCC2)C1=O"
testtarget = "N-acylethanolamine-hydrolyzing acid amidase (Homo sapiens)"
limitqualifier = "="
endpointresult = 7.25


###

- protocol: Apparent half life in PBS at pH 7.4 at 1 uM at 37 degC after 24 hrs in presence of 10% MeCN by UPLC-MS method
- Type: physicochemical
- runParameters: read-out: t1/2(app)
readoutLabel: half-life at 1 µM

[[record]]
structuresmiles = "CON1C(=O)[C@@H](NC(=O)OCCCCC2CCCCC2)[C@@H]1C"
readoutlabel = "half-life at 1 µM"
endpointresult = "> 24 h"

[[record]]
structuresmiles = "C[C@H]1[C@H](NC(=O)OCCCCC2CCCCC2)C(=O)N1OCCCS(C)(=O)=O"
readoutlabel = "half-life at 1 µM"
endpointresult = "> 24 h"

[[record]]
structuresmiles = "C[C@H]1[C@H](NC(=O)OCCCCC2CCCCC2)C(=O)N1Oc1ccc(S(C)(=O)=O)cc1"
readoutlabel = "half-life at 1 µM"
endpointresult = "12.1 h"

[[record]]
structuresmiles = "C[C@H]1[C@H](NC(=O)OCCCCC2CCCCC2)C(=O)N1Oc1ccccc1"
readoutlabel = "half-life at 1 µM"
endpointresult = "> 24 h"


###

Entries and their measured IC50 follow.
- testTarget: Acid ceramidase (Homo sapiens, UniProt Q13510)
- Sequence (Q13510 whole entry): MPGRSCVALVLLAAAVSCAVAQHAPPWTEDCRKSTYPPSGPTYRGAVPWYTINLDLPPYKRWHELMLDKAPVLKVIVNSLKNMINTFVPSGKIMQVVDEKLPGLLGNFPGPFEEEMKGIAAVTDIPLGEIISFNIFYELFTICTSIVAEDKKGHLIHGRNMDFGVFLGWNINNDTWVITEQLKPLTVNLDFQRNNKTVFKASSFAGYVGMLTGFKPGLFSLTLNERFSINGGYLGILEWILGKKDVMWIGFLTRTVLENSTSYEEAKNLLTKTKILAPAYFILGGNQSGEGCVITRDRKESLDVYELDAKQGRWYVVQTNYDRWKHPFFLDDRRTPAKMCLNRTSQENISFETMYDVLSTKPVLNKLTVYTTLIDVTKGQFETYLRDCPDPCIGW
- protocol: Inhibition of human acid ceramidase expressed in HEK293 cells using N-[(1S,2R)-2-hydroxy-1-(hydroxymethyl)-4-(2-oxochromen-7-yl)-oxybutyl]dodecanamide as substrate preincubated for 10 mins followed by substrate addition measured after 3 hrs by fluorescence assay
readoutLabel: IC50 (µM)

[[record]]
structuresmiles = "C[C@H]1[C@H](NC(=O)OCCCCC2CCCCC2)C(=O)N1Oc1ccc(S(C)(=O)=O)cc1"
testtarget = "Acid ceramidase (Homo sapiens, UniProt Q13510)"
readoutunits = "µM"
endpointresult = 2.02

[[record]]
structuresmiles = "C[C@H]1[C@H](NC(=O)OCCCCC2CCCCC2)C(=O)N1Oc1ccccc1"
testtarget = "Acid ceramidase (Homo sapiens, UniProt Q13510)"
readoutunits = "µM"
endpointresult = 0.3

